- Tested on: chick dorsal root ganglia (DRG) explants
- assay.summary: Neurite outgrowth in chick dorsal root ganglion cultures
- Type: cell-based
- conditions.used: whole ganglion explants from ten day chick embryos; neurites counted 48 hours after drug treatment
recorded.metric: ED50 (Neurite Outgrowth in Chick DRG) (nM)
Lab book: enter the figure in nM, no units written.

ED50 (Neurite Outgrowth in Chick DRG) on chick dorsal root ganglia (DRG) explants for CCC(C)(C)C(=O)C(=O)N1CCC[C@H]1C(=O)OC/C=C/c1ccc2c(c1)OCO2 is 75

Let me check: CCC(C)(C)C(=O)C(=O)N1CCC[C@H]1C(=O)OC/C=C/c1cc(OC)c(OC)c(OC)c1 , system chick dorsal root ganglia (DRG) explants, measured ED50 (Neurite Outgrowth in Chick DRG) is 190

Form field, ED50 (Neurite Outgrowth in Chick DRG) with chick dorsal root ganglia (DRG) explants, item CCC(C)(C)C(=O)C(=O)N1CCC[C@H]1C(=O)OCCCc1cc(OC)c(OC)c(OC)c1 : 149

# lookup: CCC(C)(C)C(=O)C(=O)N1CCC[C@H]1C(=O)OC/C=C/c1ccc(Cl)c(Cl)c1 on chick dorsal root ganglia (DRG) explants, ED50 (Neurite Outgrowth in Chick DRG) = 850

Entry CCC(C)(C)C(=O)C(=O)N1CCC[C@H]1C(=O)OCCCc1ccccc1 , chick dorsal root ganglia (DRG) explants data, ED50 (Neurite Outgrowth in Chick DRG) value: 53
